molecular target: Human KDR (Homo sapiens); experiment: Inhibition of KDR phosphorylation in human KDR-transfected NIH3T3 cells (ELISA); details: human KDR-transfected NIH3T3 cells, VEGF 100 ng/ml, ELISA; read-out: KDR phosphorylation 50% inhibitory concentration (IC50)
pIC50: −log10 of the molar value.
Measured Quantity: pIC50

COc1cc2nccc(Oc3ccc(NC(=O)N[C@H](C)c4ccc(C)cc4)cc3)c2cc1OC: 7.78
COc1cc2nccc(Oc3ccc(NC(=O)N[C@@H](C)c4nccs4)c(C(F)(F)F)c3)c2cc1OC: 6.18
COc1cccc([C@H](C)NC(=O)Nc2ccc(Oc3ccnc4cc(OC)c(OC)cc34)cc2)c1: 7.34
COc1cc2nccc(Oc3ccc(NC(=O)NC(C)c4nc(C)cs4)cc3F)c2cc1OC (stereo not shown): 7.76
COc1cc2nccc(Oc3ccc(NC(=O)N[C@H](C)c4ccc([N+](=O)[O-])cc4)cc3)c2cc1OC: 6.87

I. COc1cc2nccc(Oc3ccc(NC(=O)NC(C)c4nccs4)c(F)c3)c2cc1OC (stereo not shown)
II. COc1cc2c(Oc3ccc(NC(=O)NC(C)c4ccc(F)cc4)c(F)c3)ccnc2cc1OCCCN1CCOCC1 (stereo not shown)
### Prompt Please indicate which has the smaller reported pIC50: I , or II . Answer by stating the label of the chosen item.
### Response I
(I: 7.26, II: 8.54)

a. COc1cc2nccc(Oc3ccc(NC(=O)NC(C)c4ncc(C)s4)c(C)c3)c2cc1OC (stereo not shown)
b. COc1cc2nccc(Oc3cc(C)c(NC(=O)N[C@H](C)c4cccc(Br)c4)cc3C)c2cc1OC
### Prompt Which entry has a larger number for pIC50, a or b ? Your answer should be the label attached to the chosen record.
### Response b

---

Molecular target: Human KDR (Homo sapiens)
Test: Inhibition of KDR phosphorylation in human KDR-transfected NIH3T3 cells (ELISA)
Conditions: human KDR-transfected NIH3T3 cells, VEGF 100 ng/ml, ELISA; read-out: KDR phosphorylation 50% inhibitory concentration (IC50)
Description: Human KDR-transfected NIH3T3 cells (Sawano A et al., Cell Growth & Differentiation, 7, 213-221 (1996)) were cultured in a DMEM medium containing 10% fetal calf serum (purchased from GIBCO BRL) within a 5% carbon dioxide incubator until 50 to 70% confluent. The harvested cells were seeded into wells, containing the same medium, in a collagen type 1 coat 96-well flat-bottom plate in an amount of 1.5×10^4 per well, and cultured at 37° C. overnight. […]
pIC50: −log10 of the molar value.
Measured Quantity: pIC50

1. COc1cc2nccc(Oc3ccc(NC(=O)N[C@H](C)c4ccc(Cl)cc4)cc3)c2cc1OC [Example 48]
2. COc1cc2nccc(Oc3ccc(NC(=O)N[C@@H](C)c4ccc(Br)cc4)cc3)c2cc1OC [Example 34]
3. COc1cc2nccc(Oc3ccc(NC(=O)NC(C)c4nc(C)cs4)c(C(F)(F)F)c3)c2cc1OC (stereo not shown) [Example 92]
### Prompt // ascending sort on pIC50 for the entries above // ordering of labels required in reply
### Response 2, 3, 1

---

molecular target: Human KDR (Homo sapiens, UniProt P35968); test: Inhibition of KDR phosphorylation in human KDR-transfected NIH3T3 cells (ELISA); conditions: human KDR-transfected NIH3T3 cells, VEGF 100 ng/ml, ELISA; read-out: KDR phosphorylation 50% inhibitory concentration (IC50)
Sequence (P35968 20-1356): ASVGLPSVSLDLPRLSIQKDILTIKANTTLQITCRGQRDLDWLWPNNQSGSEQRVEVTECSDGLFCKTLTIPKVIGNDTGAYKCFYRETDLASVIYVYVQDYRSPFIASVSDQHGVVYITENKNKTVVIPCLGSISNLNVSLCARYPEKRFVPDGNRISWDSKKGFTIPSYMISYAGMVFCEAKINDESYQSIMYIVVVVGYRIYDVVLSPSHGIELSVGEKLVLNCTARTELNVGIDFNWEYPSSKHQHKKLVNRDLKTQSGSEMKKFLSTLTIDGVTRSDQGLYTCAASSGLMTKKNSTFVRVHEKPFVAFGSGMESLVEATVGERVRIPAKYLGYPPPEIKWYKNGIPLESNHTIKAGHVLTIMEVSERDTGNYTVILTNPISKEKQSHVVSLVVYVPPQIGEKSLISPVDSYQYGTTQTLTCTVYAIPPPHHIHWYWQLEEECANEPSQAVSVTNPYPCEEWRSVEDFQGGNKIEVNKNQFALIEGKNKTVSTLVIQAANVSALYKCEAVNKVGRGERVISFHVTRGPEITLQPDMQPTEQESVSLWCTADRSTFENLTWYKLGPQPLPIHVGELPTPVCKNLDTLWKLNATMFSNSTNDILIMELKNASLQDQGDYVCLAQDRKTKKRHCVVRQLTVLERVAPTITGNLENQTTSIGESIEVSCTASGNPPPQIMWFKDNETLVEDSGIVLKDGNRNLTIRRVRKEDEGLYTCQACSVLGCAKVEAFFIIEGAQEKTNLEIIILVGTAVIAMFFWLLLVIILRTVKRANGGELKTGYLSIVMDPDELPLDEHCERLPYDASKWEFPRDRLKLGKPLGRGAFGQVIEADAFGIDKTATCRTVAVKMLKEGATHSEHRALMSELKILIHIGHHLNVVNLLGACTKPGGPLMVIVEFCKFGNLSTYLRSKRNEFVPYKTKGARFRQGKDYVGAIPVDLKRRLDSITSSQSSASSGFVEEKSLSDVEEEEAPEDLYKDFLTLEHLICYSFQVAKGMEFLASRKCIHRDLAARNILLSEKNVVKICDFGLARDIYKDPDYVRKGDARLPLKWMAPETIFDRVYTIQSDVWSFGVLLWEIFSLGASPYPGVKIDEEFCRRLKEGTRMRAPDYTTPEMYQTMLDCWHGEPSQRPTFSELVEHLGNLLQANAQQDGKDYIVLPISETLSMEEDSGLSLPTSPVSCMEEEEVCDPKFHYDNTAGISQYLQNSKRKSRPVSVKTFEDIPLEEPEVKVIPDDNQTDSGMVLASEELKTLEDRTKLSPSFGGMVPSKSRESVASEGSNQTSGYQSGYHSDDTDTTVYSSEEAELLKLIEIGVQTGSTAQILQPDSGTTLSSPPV
pIC50: −log10 of the molar value.
Measured Quantity: pIC50

COc1cc(Oc2ccnc3cc(OC)c(OC)cc23)ccc1NC(=O)NC(C)c1nc(C)cs1 (stereo not shown): 6.95
COc1cc(Oc2ccnc3cc(OC)c(OC)cc23)ccc1NC(=O)N[C@H](C)c1cccc(Br)c1: 8.06

A. COc1cc2nccc(Oc3ccc(NC(=O)N[C@@H](C)c4ccc(C)cc4)cc3)c2cc1OC
B. COc1cc2nccc(Oc3ccc(NC(=O)N[C@@H](C)c4ccc(F)cc4)c(C(F)(F)F)c3)c2cc1OC
C. COc1cc2nccc(Oc3cc(C)c(NC(=O)N[C@@H](C)c4ccc(F)cc4)cc3C)c2cc1OC
### Prompt Arrange these compounds by their pIC50, starting with the largest number. Reply with the labels, ordered as the question asks.
### Response A, B, C
